Target: Nuclear receptor subfamily 1 group I member 2 (Homo sapiens) (UniProt O75469)
Sequence (O75469 whole entry, looked up): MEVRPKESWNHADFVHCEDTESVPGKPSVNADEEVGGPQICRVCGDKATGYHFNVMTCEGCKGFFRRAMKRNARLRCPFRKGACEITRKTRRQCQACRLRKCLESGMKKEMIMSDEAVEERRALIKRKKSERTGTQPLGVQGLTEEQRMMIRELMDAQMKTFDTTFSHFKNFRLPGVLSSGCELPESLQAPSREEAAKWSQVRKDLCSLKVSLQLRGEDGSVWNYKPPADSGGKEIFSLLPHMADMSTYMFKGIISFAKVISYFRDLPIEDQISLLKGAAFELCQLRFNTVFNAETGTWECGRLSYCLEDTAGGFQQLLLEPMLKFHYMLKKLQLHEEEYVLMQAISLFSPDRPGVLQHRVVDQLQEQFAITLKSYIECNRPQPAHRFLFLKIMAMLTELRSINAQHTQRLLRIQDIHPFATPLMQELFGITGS
Assay: Human pregnane X receptor (PXR) small molecule agonists, qHTS assay (AID 1346982); also: nearly all actives have a fitted effect of over 35% in size; as to activation: % is scaled to controls: 0 for no effect and ±100 for the full control effect
Conditions: PXR-Luc HepG2, CYP3A4 luciferase reporter, 24 h; series mostly up to 92.4 µM
Description: National Center for Advancing Translational Sciences [NCATS] NIH Chemical Genomics Center [NCGC] U.S. Environmental Protection Agency [EPA] National Institutes of Environmental Health Sciences [NIEHS] National Toxicology Program [NTP] The human pregnane X receptor (hPXR) regulates the expression of several drug metabolizing enzymes and induction of these proteins is a major mechanism for developing drug resistance in cancer. […]
Inconclusive results are not listed. Activity calls are given as the source filed them. Calls follow the shape of the dose curve; as a rule, active = well fitted activation curve with a large enough effect in the repeat runs; inconclusive = weak or mixed curves; inactive = no such curve, though single readings can be large or run the other way.
Just give me one of these, please: TRUE (active), FALSE (inactive)

Some solved cases for reference:
CCOP(=O)(OCC)Oc1cc(C)nc(C(C)C)n1 : FALSE
O=[N+]([O-])c1ccc(CCl)cc1 : FALSE
N#Cc1sc2c(=O)c3ccccc3c(=O)c=2sc1C#N : TRUE
COP(=S)(NC(C)C)Oc1ccc(C)cc1[N+](=O)[O-] (stereo not given) : TRUE
Cc1c([N+](=O)[O-])c(C)c([N+](=O)[O-])c(C(C)(C)C)c1[N+](=O)[O-] : TRUE

Problem: Each molecule tested received a call. Report the one for `ClCBr` .
Solution: FALSE

Problem: Each molecule tested received a call. Report the one for NC1CCC(CC2CCC(N)CC2)CC1 (stereo not given) .
Solution: FALSE

* * *

Test: qHTS assay for small molecule agonists of the antioxidant response element (ARE) signaling pathway (AID 743202); as to activation: % is scaled to controls: 0 for no effect and ±100 for the full control effect
Conditions: HepG2 ARE-bla reporter, beta-lactamase FRET, 16 h; series mostly up to 73.3 µM
Inconclusive results are not listed. Calls of active or inactive are those of the source. Calls come from the whole dose curve; as a rule, active = well fitted activation curve with a large enough effect in the signal ratio in the repeat runs (not every such curve was filed as active); inconclusive = weak or mixed curves, or effect the other way; inactive = no such curve, though single readings can be large or run the other way; the % refers to the signal ratio.
Just give me one of these, please: active, inactive

C[C@]12C/C(=C/O)C(=O)C[C@@H]1CC[C@@H]1[C@@H]2CC[C@@]2(C)[C@H]1CC[C@]2(C)O : active

Problem: Each compound tested received a call. Report the one for `Cc1c([N+](=O)[O-])c(C)c([N+](=O)[O-])c(C(C)(C)C)c1[N+](=O)[O-]` .
Solution: inactive

Problem: Each compound tested received a call. Report the one for `CC(=O)[O-].CC(=O)[O-].O.O.[Zn+2]` .
Solution: inactive

Problem: Each compound tested received a call. Report the one for `CCc1cccc(C)c1N(C(=O)CCl)[C@@H](C)COC` .
Solution: active

Problem: Each compound tested received a call. Report the one for `Nc1nc(N)nc(Cl)n1` .
Solution: inactive

Problem: Each compound tested received a call. Report the one for CC(Cc1ccc(O)cc1)NCC(O)c1cc(O)cc(O)c1 (stereo not drawn) .
Solution: inactive

* * *

Assay: qHTS assay to identify small molecule antagonists of the thyroid receptor (TR) signaling pathway - cell viability counter screen (AID 743064); also: nearly all actives have a fitted effect of over 50% in size
Conditions: GH3.TRE-Luc viability, CellTiter-Fluor, 24 h; series mostly up to 70.3 µM
Results filed as inconclusive are left out. Active and inactive are the calls of the source. Calls come from the whole dose curve; as a rule, active = well fitted cell-killing curve with a large enough effect in the repeat runs; inconclusive = weak or mixed curves, or effect the other way; inactive = no such curve, though single readings can be large or run the other way.
Just give me one of these, please: active, inactive

O=C1C[C@@H]2OCC=C3CN4CC[C@]56c7ccccc7N1[C@H]5[C@H]2[C@H]3C[C@H]46 : inactive
CN(C)CCc1c[nH]c2ccccc12 : inactive
c1cc[n+]2c(c1)-c1cccc[n+]1CC2 : inactive
Clc1ccc(C2(Cn3cncn3)OCCO2)c(Cl)c1 : inactive
CCC[CH2][Sn]([CH2]CCC)([O]C(C)=O)[O]C(C)=O : active

Note: attention shifts to another entry.
Problem: Each molecule tested received a call. Report the one for `ClCBr` .
Solution: inactive

* * *

Experiment: qHTS assay to identify small molecule antagonists of the estrogen related receptor signaling pathway with the pleiotropic PPARgamma coactivator (PGC) from Tox21 10K library (AID 1224841); also: actives are mostly falling curves and most rising ones were filed inactive; nearly all actives have a fitted effect of over 50% in size
Conditions: PGC/ERR reporter cell line, ONE-Glo luciferase, 18 h; series mostly up to 92.4 µM
Inconclusive results are not listed. Activity calls are given as the source filed them. The rule behind the calls is not given here.
Just give me one of these, please: active, inactive

Some solved cases for reference:
Oc1ccc(Cl)c(Cl)c1 : inactive
COP(=S)(OC)Oc1nc(Cl)c(Cl)cc1Cl : inactive
CC(=O)[O][Pb]([c]1ccccc1)([c]1ccccc1)[c]1ccccc1 : active
CC1(C)C(C=C(Cl)Cl)C1C(=O)OC(C#N)c1ccc(F)c(Oc2ccccc2)c1 (stereo unspecified) : inactive
Fc1ccc(C(OCCN2CCN(CCCc3ccccc3)CC2)c2ccc(F)cc2)cc1 : active

Problem: Each compound tested received a call. Report the one for `COc1nc(C)nc(NC(=O)NS(=O)(=O)c2ccccc2Cl)n1` .
Solution: inactive

Problem: Each compound tested received a call. Report the one for `BrCC(Br)(Br)Br` .
Solution: inactive

Problem: Each compound tested received a call. Report the one for `N#Cc1c2ccccc2cc2ccccc12` .
Solution: inactive

Problem: Each compound tested received a call. Report the one for `O=Cc1ccccc1` .
Solution: inactive

Problem: Each compound tested received a call. Report the one for `CCc1cccc(C)c1N(C(=O)CCl)[C@@H](C)COC` .
Solution: active

Problem: Each compound tested received a call. Report the one for `ClCBr` .
Solution: inactive

Problem: Each compound tested received a call. Report the one for `COC(=O)N(OC)c1ccccc1COc1ccn(-c2ccc(Cl)cc2)n1` .
Solution: active

Problem: Each compound tested received a call. Report the one for CCC1COC(Cn2cncn2)(c2ccc(Cl)cc2Cl)O1 (stereo unspecified) .
Solution: active

Problem: Each compound tested received a call. Report the one for `CCCCCON=O` .
Solution: active

Problem: Each compound tested received a call. Report the one for `C=CC(=O)[O][Sn]([CH2]CCC)([CH2]CCC)[CH2]CCC` .
Solution: active

Problem: Each compound tested received a call. Report the one for CC(C)=CC1C(C(=O)OC(C#N)c2cccc(Oc3ccccc3)c2)C1(C)C (stereo unspecified) .
Solution: inactive

* * *

Assay: qHTS assay to identify small molecule agonists of the sonic hedgehog signaling (Shh) pathway (AID 1259368);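 also: NIH/3T3-derived 3T3Gli1-Luc cells carrying a stable Gli1-driven firefly luciferase reporter; % is scaled to controls: 0 for no effect and ±100 for the full control effect; nearly all actives have a fitted effect of over 15% in size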
Conditions: NIH/3T3 Gli1-Luc reporter, luciferase, 24 h; series mostly up to 92.4 µM
The source made the active and inactive calls. The call rests on the fitted dose curve.
Just give me one of these, please: true (1) = active, false (0) = inactive

Some solved cases for reference:
COP(=O)(OC)O/C(=C\Cl)c1cc(Cl)c(Cl)cc1Cl : false (0)
C#CC1(O)CCCCC1 : false (0)
Oc1ccc(Cl)c(Cl)c1 : false (0)

Note: attention shifts to another entry.
Problem: Each molecule tested received a call. Report the one for `N#Cc1sc2c(=O)c3ccccc3c(=O)c=2sc1C#N` .
Solution: false (0)

* * *

Target: Acetylcholinesterase (Homo sapiens)
Test: Acetylcholinesterase (AChE) small molecule antagonists: enzyme-based qHTS assay (AID 1347397); also: % is scaled to controls: 0 for no effect and ±100 for the full control effect; nearly all actives have a fitted effect of over 55% in size
Conditions: AChE enzyme activity inhibition; series mostly up to 115 µM
Activity calls are given as the source filed them. Calls follow the shape of the full dose curve.
parameter-measured: outcome

C=CCBr : inactive
c1ccc2c(c1)cc1ccc3cccc4ccc2c1c34 : inactive
Nc1ccc(Cl)cc1C(=O)c1ccccc1F : inactive
Cc1cccc(Cc2cnc[nH]2)c1C : inactive

* * *

Test: qHTS assay to identify small molecule antagonists of the progesterone receptor (PR) signaling pathway - cell viability counter screen (AID 1346798);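 also: HEK293T PR-UAS-bla cells stimulated with the agonist R5020; % is scaled to controls: 0 for no effect and ±100 for the full control effect; nearly all actives have a fitted effect of over 50% in size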
Settings: PR-UAS-bla HEK293T viability, CellTiter-Glo luminescence, 16 h; series mostly up to 92.4 µM
Records with an inconclusive call do not appear. Activity calls are given as the source filed them. Calls come from the whole dose curve; as a rule, active = well fitted cell-killing curve with a large enough effect in the repeat runs; inconclusive = weak or mixed curves, or effect the other way; inactive = no such curve, though single readings can be large or run the other way.
parameter-measured: outcome

CC(Cc1ccccc1)N(C)Cc1ccco1 (stereo not drawn) : inactive
CC(C)=CC1C(C(=O)OC(C#N)c2cccc(Oc3ccccc3)c2)C1(C)C (stereo not drawn) : inactive
O=C(N[C@@H]1N=C(c2ccccc2F)c2cccc3c2N(CC3)C1=O)c1cc2ccccc2[nH]1 : inactive

* * *

Target: Thyrotropin-releasing hormone receptor (Homo sapiens)
Assay: qHTS assay to identify small molecule agonists of the thyrotropin-releasing hormone receptor (TRHR) signaling pathway (AID 1346891)
Conditions: TRHR-HEK293 calcium fluorescence, agonist mode; series mostly up to 57.6 µM
Calls of active or inactive are those of the source. Calls come from the whole dose curve.
Just give me one of these, please: active, inactive

O=S1(=O)OCC2C(CO1)C1(Cl)C(Cl)=C(Cl)C2(Cl)C1(Cl)Cl (stereo unspecified) : inactive

Problem: Each molecule tested received a call. Report the one for `N#Cc1sc2c(=O)c3ccccc3c(=O)c=2sc1C#N` .
Solution: inactive

Problem: Each molecule tested received a call. Report the one for CCOP(=S)(OCC)SC(CCl)N1C(=O)c2ccccc2C1=O (stereo unspecified) .
Solution: inactive

Problem: Each molecule tested received a call. Report the one for `CCc1cccc(C)c1N(C(=O)CCl)[C@@H](C)COC` .
Solution: inactive

Problem: Each molecule tested received a call. Report the one for `O=[N+]([O-])c1ccc(Cl)c(Cl)c1Cl` .
Solution: inactive

Problem: Each molecule tested received a call. Report the one for `O=C(NC(=O)c1c(F)cccc1F)Nc1ccc(Oc2ccc(C(F)(F)F)cc2Cl)cc1F` .
Solution: inactive

Problem: Each molecule tested received a call. Report the one for `CC(C)N(C(=O)CCl)c1ccccc1` .
Solution: inactive

Problem: Each molecule tested received a call. Report the one for `S=C=Nc1ccccc1` .
Solution: inactive

Problem: Each molecule tested received a call. Report the one for `C=C(C)C(=O)[O][Sn]([CH2]CCC)([CH2]CCC)[CH2]CCC` .
Solution: active

Sourced from PubChem BioAssay (Tox21)
